The measured values listed here are drawn from ChEMBL document CHEMBL1127274.

TARGET_OF_ASSAY: Peroxisomal carnitine O-octanoyltransferase (Homo sapiens)
Sequence (Q9UKG9 whole entry): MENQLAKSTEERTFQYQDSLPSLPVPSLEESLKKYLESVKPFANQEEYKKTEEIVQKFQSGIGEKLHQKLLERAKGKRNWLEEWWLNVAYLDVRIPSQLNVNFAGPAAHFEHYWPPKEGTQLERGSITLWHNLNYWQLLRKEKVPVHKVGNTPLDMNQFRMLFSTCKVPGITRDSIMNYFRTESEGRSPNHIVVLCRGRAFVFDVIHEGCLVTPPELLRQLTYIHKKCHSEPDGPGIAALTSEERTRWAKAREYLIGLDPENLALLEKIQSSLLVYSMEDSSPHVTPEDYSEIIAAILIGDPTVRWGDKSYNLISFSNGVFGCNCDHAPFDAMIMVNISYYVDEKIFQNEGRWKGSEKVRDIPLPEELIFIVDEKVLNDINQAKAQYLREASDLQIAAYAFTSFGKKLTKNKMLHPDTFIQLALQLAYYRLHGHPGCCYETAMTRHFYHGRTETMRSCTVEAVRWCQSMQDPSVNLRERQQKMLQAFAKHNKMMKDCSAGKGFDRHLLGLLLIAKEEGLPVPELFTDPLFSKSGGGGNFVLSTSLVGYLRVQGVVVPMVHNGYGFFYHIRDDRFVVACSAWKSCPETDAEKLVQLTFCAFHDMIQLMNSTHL
MEASUREMENT_KIND: IC50 (mM)
Give bare numbers, in mM.

Need IC50, item CCCCCCCCCCCCCCCC[C@@]1(O)C[N+](C)(C)CCO1
4
